# experimentSummary: yeast display, Sf9 membrane polyspecificity reagent, FACS + sequencing; frameworks hold sequencing errors
measurementKind: polyreactivity (PSR sort gate)

Some solved entries appear below for comparison.
- sequenceCode: "QVQLVESGGGLVQAGGSLRLSCAASGIIFLEYAMGWYRQAPGKERELVAAISSDDGSSTYYADSVKGRFTISRDNAKNTVYLKMNSLKPEDTAVYYCAAYGGGGYYYDYEYWGQGTQVTVSS"
  measured: "high polyreactivity"
- sequenceCode: "QVQLVESGGGLVQAGGSLRLSCAASGFTFSRNTMGWYRQAPGKEREFVAGIRRSGSSTYYADSVKGRFTISRDNAKNTVYLQMNSLKPEDTAVYYCARVNGAKQGGEYDYWGQGTQVTVSS"
  measured: "high polyreactivity"
- sequenceCode: "QVQLVESGVGLVQAGGRLRLSCASSAIIFKIYAMGWYRQAPGKERELVADITSVGSTKYADSVKGRFTISRDNAKNTVYLQMNSLKPEDTAVYYCATDWVTSHDDDYWGQGTQVTVSS"
  measured: "low polyreactivity"
- sequenceCode: "QVQLVESGGGLVQAGGSLRLCCAASGRTFPYYAMGWYRQAPGKERELVAAISSSGGRTYYADSVKGRFTISRDNAKNTVYLQMNSLKPEDTAVYYCNVDAWYPYQGFLVGYYYWGQGTQVTVSS"
  measured: "low polyreactivity"
- sequenceCode: "QGQLVESGGGLVQAGGSLRLSCAPSGFIFKFYAMGWYRQAPGKESELVAAITSSGGSTNYADSVKGRFTISRDNAKNTVYLQMISLKPEDTAVSYCAAQFPGVYYYIYDYWGQGTQVTVSS"
  measured: "high polyreactivity"

Please give polyreactivity (PSR sort gate), item by item, for the list that follows.
1. QVQLVESGGGLVQAGGSLRLSCAASGSTFVHYAMGWYRQAPGKERELVAAINDGGSTHYADSVKGRFTISRDNAKNTVYLQMHSLKPEDTAVYYCAAEYVWYRYPDYWGAYDYWGQGTQVTVSS
2. QVQLVESGGGLVQAGGSLRLSCAASGSTFYGYAMGWYRQAPGKERELVAAISSGASTYYADSVKGRFTISRDNAKNSVYLQMNSLKPEDTAVYYCAAYSYPKKYGYWGQGTQVTVSL
3. QVQLVESGGGLVQAGGSLRLSCAASGSIFSVNTMGWYRQAPGKERELVAAISGSGGSTYYADSVKGRFTISRDNATNPVYLQMNSLKPEETAVYYCAKVYRRGAGYNYWGQGTQVTVSS
4. QVQLVESGRGLVQAGGSLRLSCAASGSIFIVYAMGWYRQAPGKERELVAAISWSGGSTYYADSVKGRFTISRDNAKNTVYLQMNSLKPEDSAVYFCAAKYTLPFRDVKYYSWGQGTQVTVSS
5. QVQLVESCGGLVQAGGSLRLSCAASGFIFDWYAMGWYRQAPGKVRELVAAITTDGGGTYYADSVKGRFTISRDNAKNNVYLQMNSLKPEDTAVYDCAADGVSTSPQYDYWGQGTQVTVSS
6. QVQLVESGGGLVQAGGSLRLSCAASGRTFWYNAMGWYRQAPGKERELVAAISSTGGRTYYADSVKGRFTISRDNAKNTVYLQMNSLKPEDTAVYYCAKYPSKSYVPGDYWGQGTQVTVSS

["low polyreactivity", "high polyreactivity", "high polyreactivity", "high polyreactivity", "high polyreactivity", "low polyreactivity"]

Please give polyreactivity (PSR sort gate), item by item, for the list that follows.
1. QVQLVESGGGLVQAGVSLRLSCAASGGIFGNYAMGGYRQAPAKERELVAAINGGTSTYYADSVKGRFTISRDNAKNTVYLQMNCLKPEDTAGYYCAADWRYLYYALDYWGQGTQVTVSS
2. QVQLVESGGGLVQAGGSLRLSCAASGSTFTNYAMGWYRQAPGKERELVAGISRSGGTTYYADSVKGRFTISRDNVKNTVYLQMNSLKPEDTAVYYCAAVGYFGGYRYDYWGQGTQVTVSS
3. QVQLVESGGGLVQAGGSLRLSCAASGFIFRGYAMGWYRQAPGKERELVAAISTGGGRTYYADSVKGRFTISRDNAKNTVYLQMNSLKPEDTAVYYCNRRSYTQVLMDYWGQGTQVTVSS
4. QVQLVESWGGLVQAGGSLRLSCDASGSTLYHNVMGWYRQAPGKERDLVASIDTGDSTNYADSVKGRFSISRDNAKNTVYLQMNSLKPEDTAVSYCNADSYTALNNRGYDYWGLGTQVTVSS

1: low polyreactivity; 2: high polyreactivity; 3: high polyreactivity; 4: low polyreactivity

Please give polyreactivity (PSR sort gate), item by item, for the list that follows.
1. QVQLVESGGGLVQAGGSLRLSCAASGRIFKWYAMGWYRQAPGKVRELVAAISARGGRTYYADSVKGRFTISRDNAKNTVYLQMNSLKPEDTAVYYCATDYVKSDAYKYYYWGQGTQVTVSS
2. QVQLVESGGGLVQAGGSLRLSCAASGSIFGDYAMGWYRQAPGKERELVATITWIGGSTYYADSVKGRFTISRDNAKNTVYLQMNSLKPEDTAVYYCAATKYVDVKYYYWGQGTQVTVSS
3. QVQLVESGGGLVQAGGSLRLSCAASGRTFSPYVMGWYRQAPGKETELVATITGGGGSTYYADSVKGRFTISRDNAKNTVFLQMNSLKPEDTAVYYCARGYRYYVYRMGYWGQGTQVTVSS
4. QDQLVESGGGLVQAGGSLRLSCAASGSTFSYYAMGWYRQATGKERELVASISTRGGSTYYADSVKGRFTISRDNAKNTVYLQMNSLKPEDTAVYYCAATIRPRGVARVDYWGQGTQVTVSS

1. high polyreactivity
2. low polyreactivity
3. high polyreactivity
4. high polyreactivity

Please give polyreactivity (PSR sort gate), item by item, for the list that follows.
1. QVQLVESGGGLVHAGGSLRLSCAPSGSNFCFNAMGWYRQAPGKERELVAAIPSRGGSTYYADSVKGRFTISRDNAKNTVYLQMNSLKPEDTAVYYCNADHRDTFIWVGLPHMDYWGQGTQVTVSS
2. QVQLVESGGGLVQAGGSLRLSCAASGFIFVSKAMGWSRQAPGKERELVAAITTGGSTNYADSVKGRFTISRDNAKYTVYLLMNSLKPEDTAVYYCAADGRYSTYIYLHDYWGQGTQVTVSS

low polyreactivity
low polyreactivity
